Biological target: CDK6/cyclin D1 (Homo sapiens, UniProt Q00534)
Sequence (Q00534 whole entry, species assumed): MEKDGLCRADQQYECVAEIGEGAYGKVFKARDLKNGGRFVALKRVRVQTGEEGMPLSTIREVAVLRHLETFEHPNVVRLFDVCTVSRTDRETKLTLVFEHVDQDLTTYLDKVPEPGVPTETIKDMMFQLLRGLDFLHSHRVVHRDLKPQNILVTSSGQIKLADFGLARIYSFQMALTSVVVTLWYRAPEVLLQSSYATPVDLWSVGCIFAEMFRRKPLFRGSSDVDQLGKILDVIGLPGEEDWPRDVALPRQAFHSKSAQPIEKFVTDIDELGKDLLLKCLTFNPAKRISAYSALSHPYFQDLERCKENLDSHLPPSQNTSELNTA
Sequence (P24385 whole entry partner, species assumed): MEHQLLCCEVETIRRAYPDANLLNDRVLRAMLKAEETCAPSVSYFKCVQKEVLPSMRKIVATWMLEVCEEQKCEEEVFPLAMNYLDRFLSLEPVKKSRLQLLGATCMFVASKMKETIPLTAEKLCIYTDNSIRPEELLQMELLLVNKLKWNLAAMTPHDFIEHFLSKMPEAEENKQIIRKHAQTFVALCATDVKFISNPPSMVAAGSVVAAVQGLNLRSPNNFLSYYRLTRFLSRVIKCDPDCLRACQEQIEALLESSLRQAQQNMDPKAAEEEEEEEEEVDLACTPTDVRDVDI
Assay: CDK6 enzyme activity inhibition
Format: biochemical
Conditions: compound 100 nM; read-out: CDK6/Cyc D1 inhibition rate % 100 nM
Entry flag: True if inhibition at 0.1 µM reaches 20%; False if it does not.

Illustrative cases are given below, each with its answer.
smiles	category
CC(=O)N[C@H]1CC[C@@H](NC(=O)Nc2cc(-c3cnn4c3CC(C)(C)C4)c(Cl)cn2)CC1	False
COc1cc(F)ccc1-c1ccnc(NC(=O)N[C@H]2CC[C@H](N)CC2)c1	False
COCCN[C@H]1CC[C@H](NC(=O)Nc2cc(-c3ccc(F)cc3OC)ccn2)CC1	False
CC(=O)N[C@H]1CC[C@H](NC(=O)Nc2cc(-c3cnn4c3CC(C)(C)C4)c(Cl)cn2)CC1	True

Asked: Form field: inhibition at 0.1 µM at least 20%? Entry: COCCN[C@H]1CC[C@H](NC(=O)Nc2cc(-c3cnn4c3CC(C)(C)C4)c(Cl)cn2)CC1
Given back: True

* * *

Reported AUC(0-t) by item:
Experiment: PK parameters in mice after iv and po administration (LC-MS/MS of plasma)
Assay type: in vivo
Settings: mouse, plasma, iv, 3 mg/kg
Please reply with the bare figure in ng·h/mL and do not write the unit itself.

Please review the entries below; each comes with its answer.
compound	unit label	recorded measurement
COCCN[C@H]1CC[C@H](NC(=O)Nc2cc(-c3cnn4c3CC(C)(C)C4)c(Cl)cn2)CC1	ng·h/mL	728
CC(=O)N[C@@H]1CCC[C@H](C(=O)Nc2cc(-c3cnn4c3CC(C)(C)C4)c(Cl)cn2)C1 [AZD4573, reference compound]	ng·h/mL	416

Data point: CC(=O)N[C@H]1CC[C@H](NC(=O)Nc2cc(-c3cnn4c3CC(C)(C)C4)c(Cl)cn2)CC1 ; AUC(0-t) = 480

* * *

Reported IC50 by item:
Target: T1, Recombinant human CDK9/cyclin T1 (Homo sapiens, UniProt P50750)
T1 construct: purchased Carna bioscience 04-110
T1 sequence (P50750 whole entry): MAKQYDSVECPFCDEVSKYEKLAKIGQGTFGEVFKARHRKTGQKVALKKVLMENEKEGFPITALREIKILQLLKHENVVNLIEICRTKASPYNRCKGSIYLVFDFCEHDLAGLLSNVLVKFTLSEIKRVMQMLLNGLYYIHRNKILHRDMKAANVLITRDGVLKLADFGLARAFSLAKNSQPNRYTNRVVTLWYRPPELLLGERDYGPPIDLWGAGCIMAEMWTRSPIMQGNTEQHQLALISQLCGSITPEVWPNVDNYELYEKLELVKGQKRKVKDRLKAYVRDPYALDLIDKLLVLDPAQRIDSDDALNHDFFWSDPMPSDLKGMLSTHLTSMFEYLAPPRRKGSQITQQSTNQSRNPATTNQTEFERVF
T1 sequence (O60563 whole entry partner): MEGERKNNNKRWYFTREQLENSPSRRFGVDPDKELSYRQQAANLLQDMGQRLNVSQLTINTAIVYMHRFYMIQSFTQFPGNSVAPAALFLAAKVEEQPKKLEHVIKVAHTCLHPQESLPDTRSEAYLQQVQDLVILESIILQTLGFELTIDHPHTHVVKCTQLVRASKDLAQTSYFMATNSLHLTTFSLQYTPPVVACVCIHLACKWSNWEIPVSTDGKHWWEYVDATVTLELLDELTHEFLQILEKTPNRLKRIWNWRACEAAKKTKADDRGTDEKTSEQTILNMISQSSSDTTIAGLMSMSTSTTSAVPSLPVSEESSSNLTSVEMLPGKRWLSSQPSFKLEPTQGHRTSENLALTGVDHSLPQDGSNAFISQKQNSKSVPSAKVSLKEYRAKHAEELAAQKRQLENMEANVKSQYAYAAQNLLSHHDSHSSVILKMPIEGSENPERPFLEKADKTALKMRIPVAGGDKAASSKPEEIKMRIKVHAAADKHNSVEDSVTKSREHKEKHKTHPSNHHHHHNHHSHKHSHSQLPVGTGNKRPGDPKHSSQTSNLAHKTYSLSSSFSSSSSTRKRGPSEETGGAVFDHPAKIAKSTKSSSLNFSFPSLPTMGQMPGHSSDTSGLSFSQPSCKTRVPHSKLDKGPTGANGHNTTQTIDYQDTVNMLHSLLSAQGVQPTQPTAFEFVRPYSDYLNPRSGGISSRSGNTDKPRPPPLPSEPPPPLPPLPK
Assay: CDK9 enzyme inhibitory activity (ADP-Glo kinase assay)
Type: biochemical
Details: Table 2; read-out: CDK9/CycT1 IC50
Please reply with the bare figure in nM and do not write the unit itself.

Please review the entries below; each comes with its answer.
smiles	recorded measurement
COc1cc(F)ccc1-c1ccnc(NC(=O)N[C@H]2CC[C@H](N)CC2)c1	5.7
COCCN[C@H]1CC[C@H](NC(=O)Nc2cc(-c3cnn4c3CC(C)(C)C4)c(Cl)cn2)CC1	12
COCCN[C@H]1CC[C@H](NC(=O)Nc2cc(-c3ccc(F)cc3OC)ccn2)CC1	6.2

Data point: CC(=O)N[C@H]1CC[C@@H](NC(=O)Nc2cc(-c3cnn4c3CC(C)(C)C4)c(Cl)cn2)CC1 ; IC50 = 5.3

Data point: CC(=O)N[C@H]1CC[C@H](NC(=O)Nc2cc(-c3cnn4c3CC(C)(C)C4)c(Cl)cn2)CC1 ; IC50 = 5.1

* * *

Target: T1, Recombinant human CDK9/cyclin T1 (Homo sapiens, UniProt P50750)
T1 construct: purchased Carna bioscience 04-110
Assay: CDK9 enzyme inhibitory activity (ADP-Glo kinase assay)
Type: biochemical
Details: CDK9 enzyme activity; compound 10 nM; average of two independent repeats; read-out: Inhibition rate at different concentrations (%) 10 nM
Reported inhibition at 0.01 µM by item:
Please reply with the bare figure in % and do not write the unit itself.

Please review the entries below; each comes with its answer.
compound	experimental target	inhibition at 0.01 µM / %
COc1cc(F)ccc1-c1ccnc(NC(=O)NC2CCC(NC(C)=O)CC2)n1 (stereo not drawn)	T1, Recombinant human CDK9/cyclin T1 (Homo sapiens, UniProt P50750)	38.1
COc1cc(F)ccc1-c1cc(NC(=O)NC2CCC(NC3CCOC3)CC2)ncc1Cl (stereo not drawn)	T1, Recombinant human CDK9/cyclin T1 (Homo sapiens, UniProt P50750)	28.7
CC1(C)Cc2c(-c3cc(NC(=O)NC4CCCC(NC(=O)OC(C)(C)C)C4)ncc3Cl)cnn2C1 (stereo not drawn)	T1, Recombinant human CDK9/cyclin T1 (Homo sapiens, UniProt P50750)	25
Cc1c(-c2cc(NC(=O)NC3CCC(N)CC3)ncc2Cl)cnn1C (stereo not drawn)	T1, Recombinant human CDK9/cyclin T1 (Homo sapiens, UniProt P50750)	44

Data point: COCCNC1CCC(NC(=O)Nc2cc(-c3ccc(F)cc3Cl)ccn2)CC1 (stereo not drawn) ; inhibition at 0.01 µM = 24.7

* * *

Molecular target: T1, Recombinant human CDK9/cyclin T1 (Homo sapiens, UniProt P50750)
T1 construct: purchased Carna bioscience 04-110
Test: CDK9 enzyme inhibitory activity (ADP-Glo kinase assay)
Assay type: biochemical
Conditions: CDK9 enzyme activity; compound 10 nM; average of two independent repeats; read-out: Inhibition rate at different concentrations (%) 10 nM
measured endpoint: inhibition at 0.01 µM (%)
Please reply with the bare figure in % and do not write the unit itself.

Please review the entries below; each comes with its answer.
molecule	inhibition at 0.01 µM / %
CC1(C)Cc2c(-c3cc(NC(=O)NC4CCC(O)CC4)ncc3Cl)cnn2C1 (centres unmarked)	48.9
COc1cc(F)ccc1-c1cc(NC(=O)NC2CCC(NCCN(C)C)CC2)ncc1Cl (centres unmarked)	44.2
CC(=O)NC1CCC(NC(=O)Nc2cc(-c3cnn(C)c3C)c(Cl)cn2)CC1 (centres unmarked)	49

Data point: COc1cc(F)ccc1-c1cc(NC(=O)NC2CCC(NC(=O)CN(C)C)CC2)ncc1Cl (centres unmarked) ; inhibition at 0.01 µM = 29.5

Data point: CC1(C)Cc2c(-c3cc(NC(=O)NC4CCCNCC4)ncc3Cl)cnn2C1 (centres unmarked) ; inhibition at 0.01 µM = 33.8

Data point: CC1(C)Cc2c(-c3cc(NC(=O)NC4CCC(NCCOC(F)(F)F)CC4)ncc3Cl)cnn2C1 (centres unmarked) ; inhibition at 0.01 µM = 55

Data point: COCCN[C@H]1CC[C@H](NC(=O)Nc2cc(-c3cnn4c3CC(C)(C)C4)c(Cl)cn2)CC1 ; inhibition at 0.01 µM = 55

Data point: COCCNC1CCC(NC(=O)Nc2cc(-c3cnn4c3CC(C)(C)C4)ccn2)CC1 (centres unmarked) ; inhibition at 0.01 µM = 68.2

* * *

Target: T1, Recombinant human CDK9/cyclin T1 (Homo sapiens, UniProt P50750)
T1 construct: purchased Carna bioscience 04-110
Assay: CDK9 enzyme inhibitory activity (ADP-Glo kinase assay)
Assay type: biochemical
Conditions: CDK9 enzyme activity; compound 10 nM; average of two independent repeats; read-out: Inhibition rate at different concentrations (%) 10 nM
Reported inhibition at 0.01 µM by item:
Please reply with the bare figure in % and do not write the unit itself.

Please review the entries below; each comes with its answer.
compound	measured endpoint	unit label	recorded measurement
COCCNC1CCC(NC(=O)Nc2cc(-c3ccc(F)cc3OC)c(C)cn2)CC1 (centres unmarked) [Example 29]	inhibition at 0.01 µM	%	19.4
COCCNC1CCC(NC(=O)Nc2cc(-c3cnn4c3CC(C)(C)C4)c(Cl)cn2)CC1 (centres unmarked) [Example 66]	inhibition at 0.01 µM	%	57
CC(=O)NC1CCC(NC(=O)Nc2cc(-c3cnn4c3CN(C)CC4)c(Cl)cn2)CC1 (centres unmarked) [Example 83]	inhibition at 0.01 µM	%	40.2
COc1cc(F)ccc1-c1ccnc(NC(=O)NC2CC(O)C2)c1 (centres unmarked) [Example 36]	inhibition at 0.01 µM	%	16.5

Data point: COCCN(C)C1CCC(NC(=O)Nc2cc(-c3cnn4c3CC(C)(C)C4)c(Cl)cn2)CC1 (centres unmarked) [Example 90] ; inhibition at 0.01 µM = 61

Data point: COc1cc(F)ccc1-c1ccnc(NC(=O)NC2CCC(NC(=O)OC(C)(C)C)CC2)c1 (centres unmarked) [Example 1] ; inhibition at 0.01 µM = 48.5

Data point: CC(=O)NC1CCC(NC(=O)Nc2cc(-c3cnn4c3CC(C)(C)C4)ccn2)CC1 (centres unmarked) [Example 16] ; inhibition at 0.01 µM = 72

Data point: CC(=O)N[C@H]1CC[C@@H](NC(=O)Nc2cc(-c3cnn4c3CC(C)(C)C4)c(Cl)cn2)CC1 [Example 67] ; inhibition at 0.01 µM = 68

Data point: CC1(C)Cc2c(-c3ccnc(NC(=O)NC4CCC(N)CC4)c3)cnn2C1 (centres unmarked) [Example 15] ; inhibition at 0.01 µM = 51.1

Data point: CC1(C)Cc2c(-c3cc(NC(=O)NC4CCCC(N)C4)ncc3Cl)cnn2C1 (centres unmarked) [Example 77] ; inhibition at 0.01 µM = 60.3

Data point: CC(=O)NC1CCC(NC(=O)Nc2cc(-c3cnn4c3CC3(CC3)C4)c(Cl)cn2)CC1 (centres unmarked) [Example 81] ; inhibition at 0.01 µM = 58.3

Data point: CC(=O)NC1CCC(NC(=O)Nc2cc(-c3cnc(C)n3C(C)C)c(Cl)cn2)CC1 (centres unmarked) [Example 85] ; inhibition at 0.01 µM = 28.9

Data point: COc1cc(F)ccc1-c1cc(NC(=O)NC2CCC(N)CC2)ncc1Cl (centres unmarked) [Example 18] ; inhibition at 0.01 µM = 84

Data point: COc1cc(-c2ccnc(NC(=O)NC3CCC(N)CC3)c2)ccc1F (centres unmarked) [Example 6] ; inhibition at 0.01 µM = 32

Data point: COc1cc(-c2ccnc(NC(=O)NC3CCC(N)CC3)c2)c(F)cc1F (centres unmarked) [Example 7] ; inhibition at 0.01 µM = 34.3

Data point: CCNC1CCC(NC(=O)Nc2cc(-c3cnn4c3CC(C)(C)C4)c(Cl)cn2)CC1 (centres unmarked) [Example 59] ; inhibition at 0.01 µM = 72

Data point: CCNC1CCCC(NC(=O)Nc2cc(-c3cnn4c3CC(C)(C)C4)c(Cl)cn2)C1 (centres unmarked) [Example 78] ; inhibition at 0.01 µM = 68
